Molecular target: Casein kinase 1 delta (CSKN1D) (Homo sapiens, UniProt P48730)
Sequence (P48730 whole entry): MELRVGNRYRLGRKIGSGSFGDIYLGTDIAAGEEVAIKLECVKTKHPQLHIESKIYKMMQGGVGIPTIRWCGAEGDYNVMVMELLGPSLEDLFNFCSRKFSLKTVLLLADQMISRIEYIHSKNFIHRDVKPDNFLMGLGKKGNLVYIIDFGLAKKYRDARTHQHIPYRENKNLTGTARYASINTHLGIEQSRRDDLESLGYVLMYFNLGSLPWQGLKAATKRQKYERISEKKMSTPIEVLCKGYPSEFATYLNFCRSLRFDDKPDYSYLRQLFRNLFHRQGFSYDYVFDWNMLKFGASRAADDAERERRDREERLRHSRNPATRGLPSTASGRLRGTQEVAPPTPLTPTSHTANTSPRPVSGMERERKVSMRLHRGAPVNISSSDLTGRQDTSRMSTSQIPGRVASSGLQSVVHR
Assay: Casein kinase assay, CK1 delta
Details: recombinant CSKN1D 5 nM, ATP 10 μM
reported metric: IC50

{"columns": ["molecule", "assay value"],
 "data": [
  ["N#Cc1cccc(C(=O)Nc2nc3cc4c(cc3[nH]2)OC(F)(F)O4)c1", "< 0.2 µM"],
  ["Cc1cc(-c2nc(C(=O)Nc3nc4cc5c(cc4[nH]3)OC(F)(F)O5)cs2)no1", "< 0.2 µM"],
  ["O=C(Nc1nc2cc3c(cc2[nH]1)OC(F)(F)O3)c1cccs1", "0.2 to 1 µM"],
  ["COc1cccc(C(=O)Nc2nc3cc4c(cc3[nH]2)OC(F)(F)O4)n1 [Compound 24B]", "0.2 to 1 µM"],
  ["COc1cc(Nc2ncc(C(=O)Nc3nc4cc5c(cc4[nH]3)OC(F)(F)O5)s2)nc(OC)n1", "> 1 µM"],
  ["O=C(Nc1nc2cc3c(cc2[nH]1)OC(F)(F)O3)c1ccc(F)cc1", "0.2 to 1 µM"],
  ["O=C(Nc1nc(C(=O)Nc2nc3cc4c(cc3[nH]2)OC(F)(F)O4)cs1)c1ccc(Cl)cc1", "0.2 to 1 µM"],
  ["O=C(Nc1nc2cc3c(cc2[nH]1)OC(F)(F)O3)c1nc(NC(=O)c2ccc(Cl)cc2Cl)n[nH]1", "< 0.2 µM"],
  ["O=C(Nc1nc2cc3c(cc2[nH]1)OC(F)(F)O3)c1cccc(N2CCCCC2)c1", "< 0.2 µM"],
  ["O=C(Nc1nc2cc3c(cc2[nH]1)OC(F)(F)O3)c1ccc([N+](=O)[O-])cc1", "0.2 to 1 µM"],
  ["O=C(Nc1nc2cc3c(cc2[nH]1)OC(F)(F)O3)c1csc(-n2c(=O)n(CCN3CCOCC3)c3ccccc32)n1", "0.2 to 1 µM"],
  ["CCOC(=O)c1cc(C)n(-c2cccc(C(=O)Nc3nc4cc5c(cc4[nH]3)OC(F)(F)O5)c2)c1C", "< 0.2 µM"],
  ["O=C(O)c1cccc(C(=O)Nc2nc3cc4c(cc3[nH]2)OC(F)(F)O4)c1 [Compound 18B]", "0.2 to 1 µM"],
  ["O=C(Nc1nc2cc3c(cc2[nH]1)OC(F)(F)O3)c1csc(-c2ccc3c(c2)OCO3)n1", "> 1 µM"],
  ["Cc1cc(C(=O)Nc2nc3cc4c(cc3[nH]2)OC(F)(F)O4)c(C)o1", "> 1 µM"],
  ["O=C(Nc1nc(C(=O)Nc2nc3cc4c(cc3[nH]2)OC(F)(F)O4)cs1)c1ccncc1", "< 0.2 µM"]
]}
